Test system: OPM-2 cells
Assay: Cell viability assay (OPM-2 cells), CCK-8
Assay type: cell-based
Conditions: Homo sapiens, OPM-2, 24 h, WST, 5% FBS, read-out: OPM2 (WST, 5% FBS)
pIC50: −log10 of the molar value.
Decision: pIC50 >= 6 yields met, all other cases yield not met.

Reference set, count: 4
Cn1nc2cc1CSc1cc(c3ccc(F)cc3c1)OCCCc1c(C(=O)O)n(C)c3c(c(Cl)ccc13)-c1c(nn3c1CCC3)CSC2 [compound 27] : met
Cn1nc2cc1CSc1cc(c3ccc(F)cc3c1)OCCCc1c(C(=O)O)n(C)c3c(c(Cl)ccc13)-c1c(C(F)F)nn(C)c1CN(S(C)(=O)=O)C2 [compound 51] : met
Cc1c2c(nn1C)CN(S(=O)(=O)C(F)(F)F)Cc1cc(n(C)n1)CSc1cc(c3ccc(F)cc3c1)OCCCc1c(C(=O)O)n(C)c3c-2c(Cl)ccc13 [compound 46] : met
Cn1nc2cc1CSc1cc(c3ccc(F)cc3c1)OCCCc1c(C(=O)O)n(C)c3c(c(Cl)ccc13)-c1c(nn3c1CCC3)CN(S(=O)(=O)Cc1ccccc1)C2 [compound 41] : met

Asked: Form field: pIC50 at least 6? Entry: Cn1nc2cc1CSc1cc(c3cc(F)ccc3c1)OCCCc1c(C(=O)O)n(C)c3c(c(Cl)ccc13)-c1c(nn3c1COCC3)CSC2 [compound 16]
Given back: not met

Asked: Form field: pIC50 at least 6? Entry: Cn1nc2cc1CSc1cc(c3ccccc3c1)OCCCc1c(C(=O)O)n(C)c3c(c(Cl)ccc13)-c1c(nn3c1CCCCC3)CSC2 [compound 23]
Given back: met
